# System: mitochondrial membrane potential (MMP, TMRE signal)
# Assay info: Multiplexed cytotoxicity assay (nuclei, ROS, TMRE)
# Format: cell-based, human
# Assay setup: human, primary hepatocytes, 3.18E-03 μM; 24 h; read-out: MMP inhibition (fold induction)
Result type: fold induction at 24 h, 0.00318 μM
Just the number, please, no unit after it.

Tested system mitochondrial membrane potential (MMP, TMRE signal); fold induction at 24 h, 0.00318 μM recorded for O=C(Nc1nnc(-c2ccc(F)cc2)o1)N1CCc2ccccc2C1 [MBX-4132] was 1

----------
# Assay info: Pharmacokinetic analyses in mice (PO suspension, IV, SC)
# Type: in vivo, mouse
# Assay setup: mouse, in vivo, po, 10 mg/kg, PO (10 mg/kg), 8 hrs, mean of 3 animals; read-out: MBX 4132 Concentrations in Mouse Plasma, Mean
Result type: concentration at 8 h (µg/mL)
The reply should be a number in µg/mL, with the unit left off.

// concentration at 8 h lookup, molecule = O=C(Nc1nnc(-c2ccc(F)cc2)o1)N1CCc2ccccc2C1 [MBX 4132] , result: 5.11

----------
# Assay info: Mitochondrial toxicity assay, glucose vs galactose
# Format: cell-based
# Assay setup: human, HepG2 cells, HepG2; Galactcose; Conc. (μM) 1.00E-04; replicates; read-out: % viability
# Protocol: Mitochondrial toxicity assay — HepG2 cells (ATCC) were seeded and cultured in media containing either glucose or galactose overnight. Test compounds were added at 8 concentrations ([…] from 100 µM to 30 nM) and incubated with the cells for 24 h. Cell viability was measured by the alamarBlue method. The data in Supplementary Table 7 are inconsistent with MBX-4132 disrupting mitochondrial metabolic processes. Assays were performed at Eurofins Cerep Panlabs.
Result type: viability at 24 h, 100 µM (%)
The reply should be a number in %, with the unit left off.

// viability at 24 h, 100 µM lookup, molecule = O=C(Nc1nnc(-c2ccc(F)cc2)o1)N1CCc2ccccc2C1 [MBX-4132] , result: 65.3

----------
# Assay info: Caco-2 permeability
# Assay type: in vitro ADME, human
# Assay setup: human, Caco-2, A→B; Average Value; Eurofins; read-out: Caco-2 A→B
Result type: Papp A→B (×10⁻⁶ cm/s)
The reply should be a number in ×10⁻⁶ cm/s, with the unit left off.

// Papp A→B lookup, compound = O=C(Nc1nnc(-c2ccc(F)cc2)o1)N1CCc2ccccc2C1 , result: 11.1

----------
# Assay info: Caco-2 permeability
# Type: in vitro ADME, human
# Assay setup: human, Caco-2, B→A; Reported value; Eurofins; read-out: Caco-2 B→A
Result type: Papp B→A (×10⁻⁶ cm/s)
The reply should be a number in ×10⁻⁶ cm/s, with the unit left off.

// Papp B→A lookup, compound = O=C(Nc1nnc(-c2ccc(F)cc2)o1)N1CCc2ccccc2C1 , result: 7.3

----------
half-life values by entry
# Assay info: Liver microsome stability, murine
# Assay type: in vitro ADME, mouse
# Assay setup: mouse; murine liver microsomes; read-out: MMS / Microsomal Stability (t1/2), murine

Input smiles: O=C(Nc1nnc(-c2ccc(F)cc2)o1)N1CCc2ccccc2C1
half-life: > 2 h

Could you now look at the following compound, please?
// half-life lookup, compound = O=C(Nc1nnc(-c2ccc(F)cc2)o1)c1ccc(Cl)cc1 , result: < 0.0833 h

----------
# Tested on: reactive oxygen species (ROS) generation
# Assay info: Multiplexed cytotoxicity assay (nuclei, ROS, TMRE)
# Format: cell-based, human
# Assay setup: human, primary hepatocytes, 3.17E-01 μM; 24 h
Result type: fold induction at 24 h, 0.317 μM
Just the number, please, no unit after it.

// fold induction at 24 h, 0.317 μM lookup, compound = O=C(Nc1nnc(-c2ccc(F)cc2)o1)N1CCc2ccccc2C1 , result: 1.2

----------
# Assay info: Pharmacokinetic analyses in mice (PO suspension, IV, SC)
# Type: in vivo, mouse
# Assay setup: female, CD-1, mouse, in vivo, po, 10 mg/kg, PO (10 mg/kg susp.), 2 hrs, individual animals; read-out: MBX 4132 Concentrations in Mouse Plasma
Result type: concentration at 2 h
Entry format: amount then unit.

// concentration at 2 h lookup, compound = O=C(Nc1nnc(-c2ccc(F)cc2)o1)N1CCc2ccccc2C1 [MBX 4132] , result: 15 µg/mL

----------
# Assay info: Pharmacokinetic analyses in mice (PO suspension, IV, SC)
# Type: in vivo, mouse
# Assay setup: mouse, in vivo, iv, 10 mg/kg, IV (10 mg/kg), 8 hrs, individual animals; read-out: MBX 4132 Concentrations in Mouse Plasma
Result type: concentration at 8 h (ng/mL)
The reply should be a number in ng/mL, with the unit left off.

// concentration at 8 h lookup, compound = O=C(Nc1nnc(-c2ccc(F)cc2)o1)N1CCc2ccccc2C1 [MBX 4132] , result: 3920

----------
# Assay info: Serum protein binding, murine
# Assay type: in vitro ADME, mouse
# Assay setup: mouse, serum, Reported value; Eurofins; read-out: Serum binding (% bound) Murine (converted)
Result type: fraction unbound

// fraction unbound lookup, compound = O=C(Nc1nnc(-c2ccc(F)cc2)o1)N1CCc2ccccc2C1 , result: 0.02

----------
# Assay info: Pharmacokinetic analyses in mice (PO suspension, IV, SC)
# Type: in vivo, mouse
# Assay setup: female, CD-1, mouse, in vivo, po, 10 mg/kg, PO (10 mg/kg susp.), 2 hrs, mean of 3 animals; read-out: MBX 4132 Concentrations in Mouse Plasma, Mean
Result type: concentration at 2 h (ng/mL)
The reply should be a number in ng/mL, with the unit left off.

// concentration at 2 h lookup, molecule = O=C(Nc1nnc(-c2ccc(F)cc2)o1)N1CCc2ccccc2C1 [MBX 4132] , result: 14700

----------
# Target: Nav1.5 late current (Homo sapiens, UniProt Q14524)
# Construct: Eurofins Discovery Services (contract assay) CYL8004QP2DR; CYL7004QP1DR; CYL7004QP2DR
# Sequence (Q14524 whole entry): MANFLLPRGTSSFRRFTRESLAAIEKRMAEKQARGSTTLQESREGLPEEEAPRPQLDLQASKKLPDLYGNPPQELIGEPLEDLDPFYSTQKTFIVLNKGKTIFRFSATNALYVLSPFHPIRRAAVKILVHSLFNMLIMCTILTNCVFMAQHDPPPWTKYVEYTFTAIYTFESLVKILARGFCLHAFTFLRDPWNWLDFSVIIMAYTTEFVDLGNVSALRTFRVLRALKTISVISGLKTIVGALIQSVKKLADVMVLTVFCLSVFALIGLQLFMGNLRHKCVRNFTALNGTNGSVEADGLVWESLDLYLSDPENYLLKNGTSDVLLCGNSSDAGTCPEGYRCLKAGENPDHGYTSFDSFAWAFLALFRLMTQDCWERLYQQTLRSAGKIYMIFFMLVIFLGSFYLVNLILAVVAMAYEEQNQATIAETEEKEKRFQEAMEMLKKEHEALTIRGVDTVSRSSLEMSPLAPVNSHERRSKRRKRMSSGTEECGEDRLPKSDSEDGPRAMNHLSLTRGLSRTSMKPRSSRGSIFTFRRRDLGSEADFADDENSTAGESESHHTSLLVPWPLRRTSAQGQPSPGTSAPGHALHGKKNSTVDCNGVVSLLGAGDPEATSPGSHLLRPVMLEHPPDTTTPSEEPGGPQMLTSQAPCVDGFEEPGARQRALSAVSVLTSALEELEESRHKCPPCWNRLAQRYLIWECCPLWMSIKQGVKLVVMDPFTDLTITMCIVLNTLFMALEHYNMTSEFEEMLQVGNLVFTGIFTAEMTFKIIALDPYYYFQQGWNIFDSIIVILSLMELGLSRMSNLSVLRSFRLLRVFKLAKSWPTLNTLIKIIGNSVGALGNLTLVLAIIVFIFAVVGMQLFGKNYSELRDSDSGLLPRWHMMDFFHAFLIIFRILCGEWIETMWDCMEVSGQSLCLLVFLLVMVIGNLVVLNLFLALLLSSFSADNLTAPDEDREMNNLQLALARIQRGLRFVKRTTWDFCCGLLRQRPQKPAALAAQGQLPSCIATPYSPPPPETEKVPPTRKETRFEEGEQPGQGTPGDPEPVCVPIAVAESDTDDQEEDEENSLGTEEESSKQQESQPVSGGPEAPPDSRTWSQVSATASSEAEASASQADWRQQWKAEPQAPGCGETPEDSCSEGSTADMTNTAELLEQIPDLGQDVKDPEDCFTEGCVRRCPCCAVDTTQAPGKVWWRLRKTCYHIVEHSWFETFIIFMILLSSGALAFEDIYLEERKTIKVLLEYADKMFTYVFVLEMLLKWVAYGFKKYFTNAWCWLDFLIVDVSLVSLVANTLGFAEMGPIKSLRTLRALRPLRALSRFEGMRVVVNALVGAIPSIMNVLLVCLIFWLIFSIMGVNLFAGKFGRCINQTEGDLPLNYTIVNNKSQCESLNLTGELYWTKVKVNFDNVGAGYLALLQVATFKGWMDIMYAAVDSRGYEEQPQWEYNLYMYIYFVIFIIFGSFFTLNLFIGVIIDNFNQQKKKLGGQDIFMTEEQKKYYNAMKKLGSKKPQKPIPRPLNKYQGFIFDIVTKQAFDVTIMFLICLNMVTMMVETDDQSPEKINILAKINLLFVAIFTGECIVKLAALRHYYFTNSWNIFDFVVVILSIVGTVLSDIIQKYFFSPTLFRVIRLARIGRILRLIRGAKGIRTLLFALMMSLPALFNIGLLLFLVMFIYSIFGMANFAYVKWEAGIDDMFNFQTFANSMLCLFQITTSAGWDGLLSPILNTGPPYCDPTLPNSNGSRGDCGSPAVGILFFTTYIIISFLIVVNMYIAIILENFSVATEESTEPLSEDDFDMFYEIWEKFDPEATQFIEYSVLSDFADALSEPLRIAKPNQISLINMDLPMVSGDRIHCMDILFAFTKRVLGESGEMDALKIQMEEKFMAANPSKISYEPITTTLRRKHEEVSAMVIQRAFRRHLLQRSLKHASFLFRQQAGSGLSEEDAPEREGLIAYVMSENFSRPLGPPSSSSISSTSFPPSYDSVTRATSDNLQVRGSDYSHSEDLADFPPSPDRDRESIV
# Assay info: Cardiac Ion Channel Panel
# Type: cell-based
# Assay setup: read-out: Est. IC50; Antagonist mode
# Method: Several in vitro selectivity assays were performed at Eurofins Discovery Services using established methods and controls that behaved as expected (Supplementary Tables 5 and 6). […] For receptor panel profiling, MBX-4132 was evaluated at 10 μM and activity of >50% (agonist or antagonist; note that negative % inhibition indicates agonism) was scored as active.
pIC50: −log10 of the molar value.
Result type: pIC50

// pIC50 lookup, compound = O=C(Nc1nnc(-c2ccc(F)cc2)o1)N1CCc2ccccc2C1 , result: < 4.52

----------
# Tested on: mitochondrial membrane potential (MMP, TMRE signal)
# Assay info: Multiplexed cytotoxicity assay (nuclei, ROS, TMRE)
# Type: cell-based, human
# Assay setup: human, primary hepatocytes, 3.17E-01 μM; 24 h; read-out: MMP inhibition (fold induction)
Result type: fold induction at 24 h, 0.317 μM
Just the number, please, no unit after it.

// fold induction at 24 h, 0.317 μM lookup, compound = O=C(Nc1nnc(-c2ccc(F)cc2)o1)N1CCc2ccccc2C1 , result: 0.9

----------
# Tested on: mitochondrial membrane potential (MMP, TMRE signal)
# Assay info: Multiplexed cytotoxicity assay (nuclei, ROS, TMRE)
# Type: cell-based, human
# Assay setup: human, primary hepatocytes, 3.16E+01 μM; 24 h; read-out: MMP inhibition (fold induction)
Result type: fold induction at 24 h, 31.6 μM

// fold induction at 24 h, 31.6 μM lookup, compound = O=C(Nc1nnc(-c2ccc(F)cc2)o1)N1CCc2ccccc2C1 , result: 1.1

----------
# Assay info: Mitochondrial toxicity assay, glucose vs galactose
# Type: cell-based
# Assay setup: human, HepG2; Glucose; Conc. (μM) 1.00E-05; replicates
Result type: viability at 24 h, 1e-05 μM (%)
The reply should be a number in %, with the unit left off.

// viability at 24 h, 1e-05 μM lookup, molecule = O=C(Nc1nnc(-c2ccc(F)cc2)o1)N1CCc2ccccc2C1 , result: 108

----------
# Assay info: Multiplexed cytotoxicity assay (nuclei, ROS, TMRE)
# Type: cell-based, human
# Assay setup: human, human primary hepatocytes, 1.00E+02 μM; read-out: Mean ROS (fold induction)
Result type: fold induction at 24 h, 100 μM
Just the number, please, no unit after it.

// fold induction at 24 h, 100 μM lookup, compound = O=C(Nc1nnc(-c2ccc(F)cc2)o1)N1CCc2ccccc2C1 , result: 9.2

----------
# Tested on: mitochondrial membrane potential (MMP, TMRE signal)
# Assay info: Multiplexed cytotoxicity assay (nuclei, ROS, TMRE)
# Format: cell-based, human
# Assay setup: human, primary hepatocytes, 1.00E-01 μM; 24 h; read-out: MMP inhibition (fold induction)
Result type: fold induction at 24 h, 0.1 μM

// fold induction at 24 h, 0.1 μM lookup, compound = O=C(Nc1nnc(-c2ccc(F)cc2)o1)N1CCc2ccccc2C1 , result: 1.2

----------
# Assay info: Multiplexed cytotoxicity assay (nuclei, ROS, TMRE)
# Format: cell-based, human
# Assay setup: human, human primary hepatocytes, 3.18E-02 μM; read-out: Mean MMP inhibition (fold induction)
Result type: fold induction at 24 h, 0.0318 μM

// fold induction at 24 h, 0.0318 μM lookup, compound = O=C(Nc1nnc(-c2ccc(F)cc2)o1)N1CCc2ccccc2C1 , result: 0.9
